# Tgt: T1, recombinant human DLL4 (Cat# 1506-D4/CF, R&D Systems) (human, UniProt Q9NR61 27-529)
# T1 construct: Bought protein; also called hDLL4; rHuman DLL4
# Test Method Notes: SPR (ProteOn), hDLL4 amine-coupled on chip
For each record, write down the corresponding Kd.
Numbers only, in nM.

Need Kd for each of these binders.
1. Fab VH1-46_IGHD6-6*01_IGHJ1*01 S102A/S103P/S104F/H111F I51V/N52L/S54T/G56H & L6_IGKJ1*01 S28N/S30D/S31H S52L/A55S (Fab, V domains shown, Fab made in E. coli: VH on CH1 with His6 and Flag tags (Plasmid A), VL on kappa CL (Plasmid C); also called H: APFF VLTH & L: NDH LS) VH: QVQLVQSGAEVKKPGASVKVSCKASGYTFTSYYMHWVRQAPGQGLEWMGIVLPTGHSTSYAQKFQGRVTMTRDTSTSTVYMELSSLRSEDTAVYYCAREEYAPFSAEYFQFWGQGTLVTVSS VL: EIVLTQSPATLSLSPGERATLSCRASQNVDHYLAWYQQKPGQAPRLLIYDALNRSTGIPARFSGSGSGTDFTLTISSLEPEDFAVYYCQQRSNWPPWTFGQGTKVEIKR
2. Fab VH5-51_IGHD5-18*01>3_IGHJ4*01 G100K/G104T G24T/S28R/G35V & V3-4_IGLJ1*01 V91L/S96P (Fab, V domains shown, Fab made in E. coli: VH on CH1 with His6 and Flag tags (Plasmid A), VL on lambda CL (Plasmid E); also called H: KT TRV & L: LP) VH: EVQLVQSGAEVKKPGESLKISCKTSGYRFTSYWIVWVRQMPGKGLEWMGIIYPGDSDTRYSPSFQGQVTISADKSISTAYLQWSSLKASDTAMYYCARRKYSYTYDYFDYWGQGTLVTVSS VL: QTVVTQEPSFSVSPGGTVTLTCGLSSGSVSTSYYPSWYQQTPGQAPRTLIYSTNTRSSGVPDRFSGSILGNKAALTITGAQADDESDYYCLLYMGPGISYVFGTGTKVTVL
3. Fab VH5-51_IGHD5-18*01>3_IGHJ4*01 G100K/G104T S28R & V3-4_IGLJ1*01 (Fab, V domains shown, Fab made in E. coli: VH on CH1 with His6 and Flag tags (Plasmid A), VL on lambda CL (Plasmid E); also called H: KT S28R & L: wt) VH: EVQLVQSGAEVKKPGESLKISCKGSGYRFTSYWIGWVRQMPGKGLEWMGIIYPGDSDTRYSPSFQGQVTISADKSISTAYLQWSSLKASDTAMYYCARRKYSYTYDYFDYWGQGTLVTVSS VL: QTVVTQEPSFSVSPGGTVTLTCGLSSGSVSTSYYPSWYQQTPGQAPRTLIYSTNTRSSGVPDRFSGSILGNKAALTITGAQADDESDYYCVLYMGSGISYVFGTGTKVTVL

[1.7, 3.3, 114]

FYI, the data here is from patent US20110318339A1.
